Where do these numbers come from? They come from patent US8299023B2.

Reported EC50 is given for each of the following compounds.
# system_name: Y1R (Homo sapiens)
# Sequence (P25929 whole entry): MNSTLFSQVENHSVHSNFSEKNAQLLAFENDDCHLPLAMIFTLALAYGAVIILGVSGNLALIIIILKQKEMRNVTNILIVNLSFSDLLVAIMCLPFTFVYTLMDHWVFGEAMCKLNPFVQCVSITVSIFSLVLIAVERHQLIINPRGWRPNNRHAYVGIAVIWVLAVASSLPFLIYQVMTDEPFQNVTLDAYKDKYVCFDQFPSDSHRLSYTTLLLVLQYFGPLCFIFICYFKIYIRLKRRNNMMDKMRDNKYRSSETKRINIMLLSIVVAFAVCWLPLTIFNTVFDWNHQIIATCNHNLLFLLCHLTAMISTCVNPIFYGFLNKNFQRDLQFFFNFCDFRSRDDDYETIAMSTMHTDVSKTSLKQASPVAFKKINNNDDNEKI
# assay_explanation: Ca flux assay (FLIPR), Y1R
value_type: EC50

{"mol": "CC[C@H](C)[C@H](NC(C)=O)C(=O)N[C@@H](CCCCN)C(=O)N1CCN(c2nc3ncn(CC(=O)N[C@@H](CCCNC(=N)N)C(=O)N[C@@H](Cc4c[nH]cn4)C(=O)N[C@@H](Cc4ccc(O)cc4)C(=O)N[C@@H](CC(C)C)C(=O)N[C@@H](CC(N)=O)C(=O)N[C@@H](Cc4c[nH]c5ccccc45)C(=O)N[C@H](C(=O)N[C@H](C(=O)N[C@@H](CCCNC(=N)N)C(=O)N[C@@H](CCC(N)=O)C(=O)N(C)[C@@H](CCCNC(=N)N)C(=O)N[C@@H](Cc4ccc(O)cc4)C(N)=O)[C@@H](C)O)C(C)C)c3c(=O)[nH]2)CC1", "value_type": "EC50", "obs_value": "> 9 µM"}
{"mol": "CC[C@H](C)[C@H](NC(C)=O)C(=O)N[C@@H](CCCCN)C(=O)NCc1ccc(-c2cccc(CC(=O)N[C@@H](CCCNC(=N)N)C(=O)N[C@@H](Cc3c[nH]cn3)C(=O)N[C@@H](Cc3ccc(O)cc3)C(=O)N[C@@H](CC(C)C)C(=O)N[C@@H](CC(N)=O)C(=O)N[C@@H](Cc3c[nH]c4ccccc34)C(=O)N[C@H](C(=O)N[C@H](C(=O)N[C@@H](CCCNC(=N)N)C(=O)N[C@@H](CCC(N)=O)C(=O)N(C)[C@@H](CCCNC(=N)N)C(=O)N[C@@H](Cc3ccc(O)cc3)C(N)=O)[C@@H](C)O)C(C)C)c2)cc1", "value_type": "EC50", "obs_value": "> 30 µM"}
{"mol": "CC[C@H](C)[C@H](NC(C)=O)C(=O)N[C@@H](CCCCN)C(=O)N1CCN(c2ccc3ccn(CC(=O)N[C@@H](CCCNC(=N)N)C(=O)N[C@@H](Cc4c[nH]cn4)C(=O)N[C@@H](Cc4ccc(O)cc4)C(=O)N[C@@H](CC(C)C)C(=O)N[C@@H](CC(N)=O)C(=O)N[C@@H](Cc4c[nH]c5ccccc45)C(=O)N[C@H](C(=O)N[C@H](C(=O)N[C@@H](CCCNC(=N)N)C(=O)N[C@@H](CCC(N)=O)C(=O)N(C)[C@@H](CCCNC(=N)N)C(=O)N[C@@H](Cc4ccc(O)cc4)C(N)=O)[C@@H](C)O)C(C)C)c(=O)c3c2)CC1", "value_type": "EC50", "obs_value": "> 5 µM"}
